# subject_of_test: T1, EsCas13d, nuclease-dead (Eubacterium siraeum, UniProt B0MS50, R295A;H300A;R849A;H854A)
# T1 sequence: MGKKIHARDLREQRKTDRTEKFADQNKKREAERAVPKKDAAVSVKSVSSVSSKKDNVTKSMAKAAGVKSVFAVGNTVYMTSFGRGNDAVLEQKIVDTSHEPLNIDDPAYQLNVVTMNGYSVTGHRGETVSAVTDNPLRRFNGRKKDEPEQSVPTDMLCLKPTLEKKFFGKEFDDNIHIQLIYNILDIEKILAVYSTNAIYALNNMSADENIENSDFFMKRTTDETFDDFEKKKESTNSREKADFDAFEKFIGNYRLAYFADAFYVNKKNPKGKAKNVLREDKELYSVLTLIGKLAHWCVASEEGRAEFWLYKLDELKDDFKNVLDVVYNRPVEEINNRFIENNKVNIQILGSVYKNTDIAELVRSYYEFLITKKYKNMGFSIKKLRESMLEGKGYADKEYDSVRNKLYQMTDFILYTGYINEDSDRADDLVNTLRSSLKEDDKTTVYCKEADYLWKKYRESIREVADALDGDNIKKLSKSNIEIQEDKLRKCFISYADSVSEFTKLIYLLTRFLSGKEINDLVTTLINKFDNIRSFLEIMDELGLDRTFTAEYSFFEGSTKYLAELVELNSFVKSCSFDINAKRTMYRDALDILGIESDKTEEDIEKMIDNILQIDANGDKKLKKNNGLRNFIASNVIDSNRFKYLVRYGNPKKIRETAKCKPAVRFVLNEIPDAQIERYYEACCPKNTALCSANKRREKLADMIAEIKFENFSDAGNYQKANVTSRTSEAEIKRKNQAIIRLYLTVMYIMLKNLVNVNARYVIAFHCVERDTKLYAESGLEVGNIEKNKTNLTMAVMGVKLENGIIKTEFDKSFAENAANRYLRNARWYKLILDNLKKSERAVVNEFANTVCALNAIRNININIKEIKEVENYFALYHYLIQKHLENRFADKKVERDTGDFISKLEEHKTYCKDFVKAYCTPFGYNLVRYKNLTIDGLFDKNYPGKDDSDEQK
# assay_notes: crRNA (strand 1, pre-loaded); Mg2+; 40 mM Tris-HCl pH 7.5, 150 mM NaCl, 6 mM MgCl2, 1 mM DTT, 0.1% Tween-20, 0.2 mg/ml BSA; 25 C; 10 min per concentration, then washed
# particulars: tags: His6-TwinStrep-SUMO cleaved; N-terminal SNAP kept (SNAP-Surface 488); label: 3' end held by stalled T7 RNA polymerase
Below, each entry is listed alongside its reported Kd.
measured_parameter: Kd (nM)

[[record]]
binder = "target 1 insA 3' of 11,insA 3' of 7 (mixed) RNA 1: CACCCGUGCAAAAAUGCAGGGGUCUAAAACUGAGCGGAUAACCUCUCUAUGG RNA 2: GGGAAUGGAUCCACAUCUACGAAUUCGUACCAUAGAGAGGUAUAUCACGCUCACCGAGAUCGGAAGAGCACACGU"
measured_parameter = "Kd"
unit_of_measurement = "nM"
test_result = 14.3

[[record]]
binder = "target 3 insC 3' of 9,insA 3' of 7 (mixed) RNA 1: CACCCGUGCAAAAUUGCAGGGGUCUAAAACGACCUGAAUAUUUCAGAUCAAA RNA 2: GGGAAUGGAUCCACAUCUACGAAUUCGUUUUUGAUCUGAAAUACUUACAGGUCUGCAGAUCGGAAGAGCACACGU"
measured_parameter = "Kd"
unit_of_measurement = "nM"
test_result = 60.5

[[record]]
binder = "target 2 MT 5'PFS AGA 3'PFS UUU (mixed) RNA 1: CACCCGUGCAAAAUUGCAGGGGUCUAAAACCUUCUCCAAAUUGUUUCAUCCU RNA 2: GGGAAUGGAUCCACAUCUACGAAUUCAGAAGGAUGAAACAAUUUGGAGAAGUUUAGAUCGGAAGAGCACACGU"
measured_parameter = "Kd"
unit_of_measurement = "nM"
test_result = 13.2

[[record]]
binder = "target 1 C6G,A18G (mixed) RNA 1: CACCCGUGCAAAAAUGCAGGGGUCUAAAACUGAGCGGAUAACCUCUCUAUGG RNA 2: GGGAAUGGAUCCACAUCUACGAAUUCGUACCAUGGAGAGGUUAUCGGCUCACCGAGAUCGGAAGAGCACACGU"
measured_parameter = "Kd"
unit_of_measurement = "nM"
test_result = 48

[[record]]
binder = "target 1 U3G,A18G (mixed) RNA 1: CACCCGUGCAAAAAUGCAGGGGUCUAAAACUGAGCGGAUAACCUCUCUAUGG RNA 2: GGGAAUGGAUCCACAUCUACGAAUUCGUACCAUGGAGAGGUUAUCCGCGCACCGAGAUCGGAAGAGCACACGU"
measured_parameter = "Kd"
unit_of_measurement = "nM"
test_result = 87

[[record]]
binder = "target 3 insC 3' of 8,insU 3' of 6 (mixed) RNA 1: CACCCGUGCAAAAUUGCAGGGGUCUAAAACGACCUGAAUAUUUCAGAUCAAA RNA 2: GGGAAUGGAUCCACAUCUACGAAUUCGUUUUUGAUCUGAAAUAUCUCUAGGUCUGCAGAUCGGAAGAGCACACGU"
measured_parameter = "Kd"
unit_of_measurement = "nM"
test_result = 78

[[record]]
binder = "target 2 MT 5'PFS UAG 3'PFS UAG (mixed) RNA 1: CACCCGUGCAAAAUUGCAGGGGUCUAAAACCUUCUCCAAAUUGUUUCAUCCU RNA 2: GGGAAUGGAUCCACAUCUACGAAUUCUAGAGGAUGAAACAAUUUGGAGAAGUAGAGAUCGGAAGAGCACACGU"
measured_parameter = "Kd"
unit_of_measurement = "nM"
test_result = 3.7

[[record]]
binder = "target 1 C7A,A20U (mixed) RNA 1: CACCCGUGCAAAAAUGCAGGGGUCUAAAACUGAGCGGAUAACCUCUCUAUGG RNA 2: GGGAAUGGAUCCACAUCUACGAAUUCGUACCUUAGAGAGGUUAUACGCUCACCGAGAUCGGAAGAGCACACGU"
measured_parameter = "Kd"
unit_of_measurement = "nM"
test_result = 45


Reference source for all entries: paper PMC10786891
